These measurements were taken from patent US20250368666A1.

Target: FGFR1 (Homo sapiens, UniProt P11362)
Construct: made in house; host or cells: E. coli (BL21-derived), T7 phage
Sequence (P11362 22-822): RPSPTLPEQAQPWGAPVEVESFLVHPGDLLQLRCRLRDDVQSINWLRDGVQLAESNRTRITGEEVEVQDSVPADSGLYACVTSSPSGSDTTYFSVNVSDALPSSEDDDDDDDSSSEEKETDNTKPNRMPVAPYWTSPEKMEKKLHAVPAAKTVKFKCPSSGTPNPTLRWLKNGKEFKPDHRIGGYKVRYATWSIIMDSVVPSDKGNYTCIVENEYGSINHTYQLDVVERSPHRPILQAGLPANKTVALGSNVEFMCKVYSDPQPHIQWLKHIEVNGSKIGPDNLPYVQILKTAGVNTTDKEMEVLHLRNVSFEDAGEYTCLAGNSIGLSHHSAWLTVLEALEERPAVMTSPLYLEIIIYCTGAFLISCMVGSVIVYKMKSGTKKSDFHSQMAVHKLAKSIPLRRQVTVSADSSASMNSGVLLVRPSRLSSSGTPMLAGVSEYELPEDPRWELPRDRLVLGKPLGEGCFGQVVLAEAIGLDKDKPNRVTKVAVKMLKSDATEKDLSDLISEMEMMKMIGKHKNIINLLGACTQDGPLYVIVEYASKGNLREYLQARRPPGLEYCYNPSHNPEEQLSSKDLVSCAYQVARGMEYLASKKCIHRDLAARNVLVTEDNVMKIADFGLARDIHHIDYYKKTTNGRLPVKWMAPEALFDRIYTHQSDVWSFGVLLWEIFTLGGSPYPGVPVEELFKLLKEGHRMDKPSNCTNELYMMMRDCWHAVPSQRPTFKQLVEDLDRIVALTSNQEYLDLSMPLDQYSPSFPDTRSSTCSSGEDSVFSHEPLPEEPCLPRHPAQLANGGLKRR
Experiment: Kinase binding assay (kinase-tagged T7 phage, affinity beads, qPCR), Kd
Conditions: read-out: FGFR1 (Kd nM)
Catalogue of compounds with associated Kd

Solved entries:
| compound | Kd |
| --- | --- |
| COc1cc2[nH]nc(-c3cnc(N4C[C@H](CS(C)(=O)=O)[C@H]4C)c(C#N)c3)c2cc1O[C@@H](C)c1c(Cl)cncc1Cl [Example 335] | > 1000 nM |
| C[C@@H](Oc1cc2c(-c3ccc(N4CC(C)(CP(C)(C)=O)C4)nc3)n[nH]c2cc1F)c1c(Cl)cncc1Cl [Example 67] | 1 to 50 nM |
| COc1cc2[nH]nc(-c3cnc(N4CC(C)(NC5CCC5)C4)c(C#N)c3)c2cc1O[C@H](C)c1c(Cl)cncc1Cl [Example 12] | 1 to 50 nM |
| C[C@@H](Oc1ccc2[nH]nc(-c3ccc(N4CC(C)(NCC(F)F)C4)nn3)c2c1)c1c(Cl)cncc1Cl [Example 312] | 1 to 50 nM |
| C[C@@H](Oc1ccc2[nH]nc(-c3cnc(N4CC(C)(O)C4)c(F)c3)c2c1)c1c(Cl)cncc1Cl [Example 154] | 1 to 50 nM |

Request: Give measured Kd for C[C@@H](Oc1ccc2[nH]nc(-c3ccc(N4C[C@@H](CS(C)(=O)=O)[C@@H]4C)nc3)c2c1)c1c(Cl)cncc1Cl [Example 203] (FGFR1 (Homo sapiens, UniProt P11362)).
Response: 1 to 50 nM

Request: Give measured Kd for C[C@@H](Oc1ccc2[nH]nc(-c3ccc(N4CC(C)(CP(C)(C)=O)C4)nc3)c2c1F)c1c(Cl)cncc1Cl [Example 187] (FGFR1 (Homo sapiens, UniProt P11362)).
Response: > 1000 nM

* * *

Molecular target: FGFR1 (Homo sapiens, UniProt P11362)
Construct: made in house; host or cells: E. coli (BL21-derived), T7 phage
Test: Kinase binding assay (kinase-tagged T7 phage, affinity beads, qPCR), Kd
Conditions: read-out: FGFR1 (Kd nM)
value_type: Kd

Solved entries:
| compound | reported_value |
| --- | --- |
| C[C@@H](Oc1ccc2[nH]nc(-c3cnc(N4CC(C)(NC5CCC5)C4)c(C#N)c3)c2c1)c1c(Cl)cncc1Cl | 50 to 300 nM |
| COc1cc2[nH]nc(-c3cnc(N4CC(C)(N)C4)c(F)c3)c2cc1O[C@H](C)c1c(Cl)cncc1Cl | 1 to 50 nM |
| C[C@@H](Oc1ccc2[nH]nc(-c3cnc(N4CC(C)(N5CCOCC5)C4)c(F)c3)c2c1)c1c(Cl)cncc1Cl | 1 to 50 nM |
| C[C@@H](Oc1ccc2[nH]nc(-c3cnc(N4CC(N)(Cc5cnn(C)c5)C4)c(F)c3)c2c1)c1c(Cl)cncc1Cl | 1 to 50 nM |
| C[C@@H](Oc1ccc2[nH]nc(-c3cnc(N4CC(CC#N)(N(C)C)C4)c(F)c3)c2c1)c1c(Cl)cncc1Cl | 1 to 50 nM |
| CCCC1(N)CN(c2ncc(-c3n[nH]c4cc(OC)c(O[C@H](C)c5c(Cl)cncc5Cl)cc34)cc2C#N)C1 | 1 to 50 nM |
| C[C@H](O)CNC1(C)CN(c2ccc(-c3n[nH]c4ccc(O[C@H](C)c5c(Cl)cncc5Cl)cc34)cn2)C1 | 1 to 50 nM |
| C[C@@H](Oc1ccc2[nH]nc(-c3cnc(N4CC(N)(C5CCC5)C4)c(F)c3)c2c1)c1c(Cl)cncc1Cl | 1 to 50 nM |

Request: Give measured Kd for C[C@@H](O)CNC1(C)CN(c2ncc(-c3n[nH]c4ccc(O[C@H](C)c5c(Cl)cncc5Cl)c(F)c34)cc2F)C1 (FGFR1 (Homo sapiens, UniProt P11362)).
Response: 300 to 1000 nM

Request: Give measured Kd for C[C@@H](Oc1ccc2[nH]nc(-c3cnc(N4CC(N)(CCCO)C4)c(F)c3)c2c1)c1c(Cl)cncc1Cl (FGFR1 (Homo sapiens, UniProt P11362)).
Response: 1 to 50 nM

Request: Give measured Kd for C[C@@H](Oc1ccc2[nH]nc(-c3cnc(N4CC(C)(NCCO)C4)c(C#N)c3)c2c1)c1c(Cl)cncc1Cl (FGFR1 (Homo sapiens, UniProt P11362)).
Response: 1 to 50 nM

Request: Give measured Kd for C[C@@H](Oc1ccc2[nH]nc(-c3ccc(N4CC(N)(CCF)C4)nn3)c2c1)c1c(Cl)cncc1Cl (FGFR1 (Homo sapiens, UniProt P11362)).
Response: 1 to 50 nM
